The values you see were collected from ChEMBL document CHEMBL5346882.

System tested: Cholinesterase (Homo sapiens, UniProt P06276)
Sequence (P06276 whole entry): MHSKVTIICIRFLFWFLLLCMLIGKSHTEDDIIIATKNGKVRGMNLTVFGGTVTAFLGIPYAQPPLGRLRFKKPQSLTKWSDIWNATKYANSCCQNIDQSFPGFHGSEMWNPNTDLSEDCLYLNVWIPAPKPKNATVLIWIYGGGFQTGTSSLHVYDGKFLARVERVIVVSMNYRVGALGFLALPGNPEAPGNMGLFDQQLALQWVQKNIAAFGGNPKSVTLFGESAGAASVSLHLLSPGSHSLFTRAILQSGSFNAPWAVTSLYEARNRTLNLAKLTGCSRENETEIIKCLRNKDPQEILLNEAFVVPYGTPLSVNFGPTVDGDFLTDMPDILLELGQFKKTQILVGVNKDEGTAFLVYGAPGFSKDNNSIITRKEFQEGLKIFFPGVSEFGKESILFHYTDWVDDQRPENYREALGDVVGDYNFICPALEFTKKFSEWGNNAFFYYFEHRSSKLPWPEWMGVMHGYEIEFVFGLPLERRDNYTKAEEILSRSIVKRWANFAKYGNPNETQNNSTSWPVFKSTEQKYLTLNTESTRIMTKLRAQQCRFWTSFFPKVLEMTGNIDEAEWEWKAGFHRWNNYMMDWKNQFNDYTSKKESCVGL
Procedure summary: Inhibition of human recombinant BuChE using butyrylthiocholine iodide as substrate at 1 uM preincubated for 5 mins followed by substrate addition and measured after 5 mins by DTNB-reagent based Ellman's method relative to control
Run conditions: time 10.0 min
Measured metric: inhibition

Sample O=C(NCC(O)CNCc1ccccc1)C(c1ccccc1)c1ccccc1 (racemic) — what was its inhibition?
< 20%

Sample CC(C)(NCC(O)CNC(=O)CC(c1ccccc1)c1ccccc1)c1ccccc1 (racemic) — what was its inhibition?
< 20%

Sample C[C@H](NCC(O)CNC(=O)CC(c1ccccc1)c1ccccc1)c1ccccc1 (mixture of isomers) — what was its inhibition?
34%
